Each recorded value in this set is attributed to PubChem BioAssay (NCI).

System: HOP-62 NSCLC
assayProtocol: NCI tumour cell line growth inhibition, 48 h
outcomeMeasure: TGI (µM)
State the answer as a number, implicitly in µM.

>  <compound>
O=C(/C=C/c1cccc([N+](=O)[O-])c1)c1ccc(O)c(CN2CCN(c3cc4c(cc3F)c(=O)c(C(=O)O)cn4C3CC3)CC2)c1

>  <testSystem>
HOP-62 NSCLC

>  <TGI [µM]>
16.8

$$$$

Consider the record given below.
[Q] So what's the measured TGI for this one? Fc1cccc(CSc2ncnc3c2ncn3C2CCCS2)c1 (stereo not given)
[A] 40.3

====

Tested on: OVCAR-3 ovarian
assayProtocol: NCI tumour cell line growth inhibition, 48 h
Each record here notes measured TGI.

Worked cases, answers included:
>  <compound>
COc1ccc(-c2nnc(CCCCCCCCc3nnc(-c4ccc(OC)cc4)n3N)n2N)cc1

>  <TGI>
> 100 µM

$$$$
>  <compound>
O=C1C(Cl)=C(Nc2cccc(O)c2)C(=O)N1Cc1ccc(Cl)cc1

>  <TGI>
5.86 µM

$$$$
>  <compound>
CC(C)(C)OC(=O)N1Cc2cc(O)ccc2C[C@H]1C(=O)O

>  <TGI>
> 100 µM

$$$$
>  <compound>
CCn1c2ccc(C(=O)CCCN(C)C)cc2c2cc(C(=O)CCCN(C)C)ccc21

>  <TGI>
6.72 µM

$$$$
>  <compound>
COc1cc2c(cc1OC)C(CC1(O)CCCCC1)N(S(=O)(=O)c1ccc(C)cc1)CC2 (stereo not given)

>  <TGI>
> 10 µM

$$$$

[Q] Could you tell me which TGI is on file for COc1cc(-c2csc(NC(=O)Nc3cc(C(F)(F)F)cc(C(F)(F)F)c3)n2)cc(OC)c1OC ?
[A] 10.6 µM

[Q] Given NC(=O)CCC(NC(=O)c1cccc2c(=O)c3ccccc3[nH]c12)C(=O)O (stereo not given) , state its recorded TGI.
[A] > 100 µM

[Q] For the compound shown here, COC(=O)[C@@]1(O)CC(C)C=C1C=O (stereo not given in full) , give the reported TGI.
[A] > 100 µM

[Q] Entry under review: CCCCCCCCCCCCCCCCCCOc1ccc(/C=C/C2=[N+](CCCl)CCO2)cc1 . Reported TGI?
[A] > 100 µM

[Q] Param item = CCOC(=O)[C@H]1CSC[C@@H](C(=O)OC)N1 ; retrieve measured TGI.
[A] > 100 µM

====

Test system: MDA-MB-435
assayProtocol: NCI tumour cell line growth inhibition, 48 h
Readings of TGI for the listed compounds

Guide cases for TGI, answers given:
>  <compound>
COC(=O)c1c(O)ccc2c1c1c(n2Cc2ccccc2OC)C(=O)c2ccccc2C1

>  <testSystem>
MDA-MB-435

>  <result>
> 100 µM

$$$$
>  <compound>
O=C(O)C1C(=O)Oc2c(cccc2[N+](=O)[O-])C1O (stereo not drawn)

>  <testSystem>
MDA-MB-435

>  <result>
> 100 µM

$$$$
>  <compound>
COc1cc2c(cc1OC)C(CC1(O)CCCCC1)N(S(=O)(=O)c1ccc(C)cc1)CC2 (stereo not drawn)

>  <testSystem>
MDA-MB-435

>  <result>
> 10 µM

$$$$
>  <compound>
O=c1oc2c/c(=C\c3ccccc3)c(=O)c3cccc1c3-2

>  <testSystem>
MDA-MB-435

>  <result>
51.7 µM

$$$$
>  <compound>
COc1ccc(SC2c3ccc(C)cc3Oc3nc(N)c(C#N)c(N)c32)cc1 (stereo not drawn)

>  <testSystem>
MDA-MB-435

>  <result>
3.16 µM

$$$$

[Q] Sample Cc1ccc(C(=O)C2=CN=C3C(=O)N(c4ccccc4)N(C)C3(C)C2=N)cc1 (stereo not drawn) — what was its TGI?
[A] > 100 µM

[Q] What value of TGI has been reported for the following compound? CN1CCN(/C(N)=C(\C#N)C(=O)Nc2ccccc2)CC1
[A] > 100 µM

[Q] Dear colleague, I am looking for the recorded TGI of the following compound: CCOC(=O)c1cn(CC)c2cc3c(cc2c1=O)CCS3(=O)=O
[A] > 100 µM

====

Tested on: KM12 colon
assayProtocol: NCI tumour cell line growth inhibition, 48 h
outcomeMeasure: TGI (µM)
Supply the numeric figure in µM, leaving out any unit text.

Example results:
>  <molecule>
CC(=O)OC1CC[C@@]2(C)C(CC[C@]3(C)C2CC=C2[C@@H]4CC(C)(C)CCC4(C)CCC23C)[C@@]1(C)C(=O)O (stereo not given in full)

>  <testSystem>
KM12 colon

>  <unitTag>
µM

>  <result>
52.3

$$$$
>  <molecule>
COc1ccc(-c2cn(-c3cccc(C(=O)/C=C/c4ccc(O)c(OC)c4)c3)c(=O)[nH]2)cc1

>  <testSystem>
KM12 colon

>  <unitTag>
µM

>  <result>
3.57

$$$$
>  <molecule>
COc1cc2c(cc1OC)-c1ccc3cc4c(cc3c1N(CCN(C)C)C2)OCO4

>  <testSystem>
KM12 colon

>  <unitTag>
µM

>  <result>
2.47

$$$$

[Q] // TGI lookup, key: COc1cc(F)cc([C@@H](CO)NC(=O)[C@@H](C)N2Cc3ccc(-c4nc(NC5CCOCC5)ncc4Cl)cc3C2=O)c1
[A] 37.4

====

Test system: NCI/ADR-RES ovarian
assayProtocol: NCI tumour cell line growth inhibition, 48 h
outcomeMeasure: TGI (µM)
Value expressed in µM; do not type the unit.

Check out these entries, answers already filled in.
>  <compound>
COc1cc(-c2csc(NC(=O)Nc3cc(C(F)(F)F)cc(C(F)(F)F)c3)n2)cc(OC)c1OC

>  <TGI (µM)>
12.1

$$$$
>  <compound>
CCOc1ccc2nc(-c3cccc(OCC(=O)NC(C)C)c3)nc(Nc3ccc(-c4cn[nH]c4)cc3)c2c1

>  <TGI (µM)>
22.9

$$$$
>  <compound>
COc1cc(C2c3cc4c(cc3OC3(OC)COC(=O)C23)OCO4)cc(OC)c1OC (stereo not given)

>  <TGI (µM)>
4.39

$$$$

[Q] Query: TGI; subject: N/C(=N\N=C\c1cc2c(cc1Cl)OCO2)NO
[A] 57.2

====

Reported TGI values are given for each entry in this list.
Test system: EKVX NSCLC
assayProtocol: NCI tumour cell line growth inhibition, 48 h

>  <molecule>
N#CCOc1cccc(C2(N3CC=CCC3)CCCCC2)c1

>  <TGI>
> 100 µM

$$$$
>  <molecule>
Cc1nc2c(Cl)cc(Cl)cc2c(Cl)c1CCCl

>  <TGI>
> 100 µM

$$$$
>  <molecule>
COc1ccc2c(c1)c1nc3cc(C)c(C)cc3nc1n2CCN(C)C

>  <TGI>
2.85 µM

$$$$

[Q] For CCOC(=O)C1=CC(C)(C(=O)OCC)Nc2c(nc(SC)n(C)c2=O)N1 (stereo unspecified) , what is its reported TGI?
[A] > 10 µM

[Q] Request the reported TGI associated with O=[P+](O)c1cc2ccccc2c2ccccc12
[A] > 100 µM

[Q] I have this molecule here, CCOC(=O)c1cn(CC)c2cc3c(cc2c1=O)CCS3(=O)=O , and I need its recorded TGI.
[A] > 100 µM

====

System: NCI-H226 lung
assayProtocol: NCI tumour cell line growth inhibition, 48 h
Items are presented alongside their recorded GI50.

Use the examples below as a reference point.
>  <compound>
COc1ccc(SC2c3ccc(C)cc3Oc3nc(N)c(C#N)c(N)c32)cc1 (stereo not given)

>  <testSystem>
NCI-H226 lung

>  <GI50>
1.75 µM

$$$$
>  <compound>
CCOc1ccc2nc(-c3cccc(OCC(=O)NC(C)C)c3)nc(Nc3ccc(-c4cn[nH]c4)cc3)c2c1

>  <testSystem>
NCI-H226 lung

>  <GI50>
0.783 µM

$$$$
>  <compound>
CN1CCN(C(=O)c2c(NC(=O)NS(=O)(=O)c3ccccc3)sc3c2CCCCC3)CC1

>  <testSystem>
NCI-H226 lung

>  <GI50>
33.1 µM

$$$$

[Q] Entry under review: Cn1cc(-c2nc(-c3c[nH]c4ccncc34)cs2)c2cc(F)ccc21 . Reported GI50?
[A] 1.92 µM

[Q] Item CC1(C)N=C(N)N=C(N)N1c1ccc(CCc2ccc(Cl)cc2S(=O)(=O)F)c(Cl)c1 has what recorded GI50?
[A] 17.9 µM

[Q] Quick check: GI50 of O=c1oc(-c2ccccc2)cc2cccc(O)c12 ?
[A] 19.4 µM

[Q] Requested field: GI50. Item: CC1(C)CCC[C@]2(C)c3cc(O)ccc3CC[C@@H]12
[A] 18.2 µM

[Q] May I ask what GI50 has been recorded for Nc1nc2ccc3[nH]ncc3c2c2c1CCCC2 ?
[A] 1.48 µM

[Q] GET /values?readout=GI50&item= O=C(Nc1ccc2[nH]c(C(=O)N3CC(CCl)c4c3cc([N+](=O)[O-])c3ccccc43)cc2c1)c1cc2ccccc2o1 (stereo not given)
[A] > 1100 µM

[Q] // lookup GI50 for CN1C(=O)C(=Cc2cn(Cc3ccccc3)c3ccccc23)C(=O)N(C)C1=O
[A] 3.46 µM
